- Tested on: Mfn2 null MEFs
- procedure_summary: Mitochondrial elongation (aspect ratio) fusogenicity assay
- Type: cell-based, mouse
- Set-up: dose or concentration left out as unconfirmed
- test_parameters: mitochondrial elongation relative to Cpd B (B01 = 100); Mfn2 null MEFs, compound overnight as printed (FIG. 48)
Catalogue of % long compare to B values
Quick note: give the figure in %, leave out the unit.

{"molecule": "Cc1nnc(SCCCNC(=O)c2n[nH]c3c2CN(C)CC3)s1 [E06]", "readout_value": "−3"}
{"molecule": "Cc1cccc(NC(=O)NCCCCc2ccccc2)c1 [A3, 3-(3-methylphenyl)-1-(4-phenylbutyl)urea]", "readout_value": 32}
{"molecule": "CC(Sc1nnc(N2CCOCC2)n1Cc1ccccc1)C(=O)Nc1ccc2c(c1)OCCO2 (stereo not shown) [A09]", "readout_value": 55}

Field: next molecule
Input: // % long compare to B lookup, key: CC1CCc2c(sc(NC(=O)CSc3nnc(C4CC4)n3C)c2C(N)=O)C1 (stereo not shown) [1-A11]
Output: 6

Sourced from patent US10844023B2
